meta.source: paper PMC11943723

Consider the following compounds and their measured Hemolytic activity, erythrocytes readings.
System: Human erythrocytes
Experiment: Hemolytic activity (destruction of erythrocyte membranes)
Type: cell-based
Excerpt: Human erythrocytes were purchased from the blood transfusion station Vladivostok. Human breast cancer cell lines MCF-7^HTB−22, and MDA-MB-231^CRM-HTB−26, liver hepatocellular carcinoma Hep G2^HB−8065, prostate adenocarcinoma PC-3^CRL−1435, cervical adenocarcinoma HeLa^CRM-CCL−2, and normal bronchial epithelial cells BEAS-2B ^CRL−3588 were received from ATCC (Manassas, VA, USA).

// worked examples, Hemolytic activity, erythrocytes included
# compound, assayed_target, Hemolytic activity, erythrocytes
records = [
    ("Cl.Nc1nc(-c2ccc(Br)cc2)c(SS[C@@H]2OC[C@@H](O)[C@H](O)[C@H]2O)s1 [Compound 5h]", "Human erythrocytes", "> 25 µM"),
    ("CC(=O)O[C@@H]1[C@@H](OC(C)=O)[C@H](SSc2sc(N)nc2-c2ccc(Br)cc2)OC[C@H]1OC(C)=O [Compound 4h]", "Human erythrocytes", "> 25 µM"),
    ("CC(=O)OC[C@H]1O[C@@H](SSc2sc(N)nc2-c2ccc(Br)cc2)[C@H](OC(C)=O)[C@@H](OC(C)=O)[C@@H]1OC(C)=O [Compound 4c]", "Human erythrocytes", "> 25 µM"),
    ("Cl.Nc1nc(-c2ccc(Br)cc2)c(SS[C@@H]2O[C@H](CO)[C@@H](O)[C@H](O)[C@H]2O)s1 [Compound 5c]", "Human erythrocytes", "> 25 µM"),
    ("Nc1nc(-c2ccc(Cl)cc2)c(SS[C@@H]2O[C@H](CO)[C@@H](O)[C@H](O)[C@H]2O)s1 [Compound 5d]", "Human erythrocytes", "> 25 µM"),
]

Q) Respond only with Hemolytic activity, erythrocytes recorded for CC(=O)O[C@@H]1[C@@H](OC(C)=O)[C@H](SSc2sc(N)nc2-c2ccc(Cl)cc2)OC[C@H]1OC(C)=O [Compound 4i]
A) > 25 µM
